Where do these numbers come from? They come from patent US20260242478A1.

In this section we review reported phage binding ELISA signal values for a set of binders.
molecular target: T1, PSMA Fab (biotinylated (site not stated)); experiment: clonal phage ELISA on plate-bound PSMA Fab pre-incubated with PSMA antigen as competitor
T1 construct: Biotinylated PSMA Fab captured on neutravidin coated plates in the phage ELISA; also called Anti-PSMA Fab; 006 PSMA Fab
Enter the number alone.

[[record]]
binder = "DQVMCKPIWMCEGF (not shown: pIII filament protein of the bacteriophage) [Phage-3219]"
measured_result = 0.0928

[[record]]
binder = "MAPYCVPSWMCWGF (not shown: pIII filament protein of the bacteriophage) [Phage-3214]"
measured_result = 0.145

[[record]]
binder = "IPRACIPAWMCQGF (not shown: pIII filament protein of the bacteriophage) [Phage-3220]"
measured_result = 0.101


Which phage binding ELISA signal is reported for this binder? LDLRCQPPWMCMGF (not shown: pIII filament protein of the bacteriophage) [Phage-3215]
0.0778
